- experimentalTarget: α6β2β3α4β2 concatamer nAChR (Homo sapiens, UniProt P17787+P43681+Q15825)
- Sequence (Q15825 26-494): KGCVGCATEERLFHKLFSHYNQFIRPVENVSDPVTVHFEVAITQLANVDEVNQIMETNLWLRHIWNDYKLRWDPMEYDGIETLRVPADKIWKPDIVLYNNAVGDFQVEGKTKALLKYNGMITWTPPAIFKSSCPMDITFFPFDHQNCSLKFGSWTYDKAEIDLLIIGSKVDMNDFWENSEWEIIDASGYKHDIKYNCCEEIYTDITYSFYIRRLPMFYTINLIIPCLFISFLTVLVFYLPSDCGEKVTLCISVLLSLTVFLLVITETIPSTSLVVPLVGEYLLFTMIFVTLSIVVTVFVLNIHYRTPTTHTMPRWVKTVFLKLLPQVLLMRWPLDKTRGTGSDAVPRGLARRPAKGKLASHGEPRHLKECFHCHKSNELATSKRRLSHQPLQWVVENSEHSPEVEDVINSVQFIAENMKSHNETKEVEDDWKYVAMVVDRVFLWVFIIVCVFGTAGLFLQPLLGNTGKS
- Sequence (P17787 26-502): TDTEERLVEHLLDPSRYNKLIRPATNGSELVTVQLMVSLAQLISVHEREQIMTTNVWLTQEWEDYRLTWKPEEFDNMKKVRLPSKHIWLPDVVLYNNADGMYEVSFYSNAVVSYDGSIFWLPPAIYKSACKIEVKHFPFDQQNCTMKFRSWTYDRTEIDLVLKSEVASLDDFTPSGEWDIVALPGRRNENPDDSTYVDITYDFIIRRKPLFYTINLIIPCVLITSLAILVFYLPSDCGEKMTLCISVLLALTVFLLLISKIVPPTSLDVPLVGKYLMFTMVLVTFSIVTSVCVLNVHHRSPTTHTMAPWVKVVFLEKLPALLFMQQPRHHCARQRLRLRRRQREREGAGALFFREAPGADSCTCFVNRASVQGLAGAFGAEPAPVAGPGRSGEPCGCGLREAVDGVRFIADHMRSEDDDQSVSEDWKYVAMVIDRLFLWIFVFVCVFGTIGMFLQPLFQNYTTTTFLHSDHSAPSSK
- Sequence (P43681 27-627): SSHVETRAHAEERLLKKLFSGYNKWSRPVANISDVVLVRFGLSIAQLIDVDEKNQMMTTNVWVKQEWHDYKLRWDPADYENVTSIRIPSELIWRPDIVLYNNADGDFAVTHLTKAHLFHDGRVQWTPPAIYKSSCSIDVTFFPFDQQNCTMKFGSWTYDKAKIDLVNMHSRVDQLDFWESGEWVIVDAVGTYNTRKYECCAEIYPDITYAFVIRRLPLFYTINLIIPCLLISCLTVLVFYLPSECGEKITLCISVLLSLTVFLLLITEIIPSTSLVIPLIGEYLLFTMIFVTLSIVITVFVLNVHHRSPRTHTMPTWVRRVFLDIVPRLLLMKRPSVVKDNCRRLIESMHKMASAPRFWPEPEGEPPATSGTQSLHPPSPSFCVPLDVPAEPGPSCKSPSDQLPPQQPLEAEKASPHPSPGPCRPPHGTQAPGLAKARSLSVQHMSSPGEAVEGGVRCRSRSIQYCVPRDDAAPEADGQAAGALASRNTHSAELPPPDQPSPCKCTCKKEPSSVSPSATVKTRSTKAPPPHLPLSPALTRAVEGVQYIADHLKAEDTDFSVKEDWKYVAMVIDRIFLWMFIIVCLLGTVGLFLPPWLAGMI
- Sequence (Q05901 22-458 partner): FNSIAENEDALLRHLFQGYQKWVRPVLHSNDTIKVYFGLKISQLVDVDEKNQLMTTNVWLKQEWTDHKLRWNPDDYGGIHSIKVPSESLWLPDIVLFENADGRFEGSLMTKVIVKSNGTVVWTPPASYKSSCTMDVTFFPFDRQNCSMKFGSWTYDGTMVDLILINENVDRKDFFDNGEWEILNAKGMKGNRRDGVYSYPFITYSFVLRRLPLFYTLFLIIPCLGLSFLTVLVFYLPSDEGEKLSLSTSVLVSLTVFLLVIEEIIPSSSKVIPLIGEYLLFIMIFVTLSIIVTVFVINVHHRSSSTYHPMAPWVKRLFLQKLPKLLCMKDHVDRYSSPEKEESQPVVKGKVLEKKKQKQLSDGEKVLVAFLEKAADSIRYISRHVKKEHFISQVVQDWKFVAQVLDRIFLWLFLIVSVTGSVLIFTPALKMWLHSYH
- assayName: Two-electrode voltage clamp of Xenopus oocytes expressing the α6-containing concatamer
- recordedConditions: α6-containing receptor; responses relative to ACh maximum
resultType: EC50 (µM)
Answer format: numeric, µM implied, no suffix.

Qu. Lab note: record EC50 of COC(=O)C1=CCCN(C)C1 tested on α6β2β3α4β2 concatamer nAChR (Homo sapiens, UniProt P17787+P43681+Q15825).
Ans. 21

---

- experimentalTarget: LS α4(3)β2(2) nAChR (Homo sapiens, UniProt P17787+P43681)
- Sequence (P17787+P43681 fused, one chain of several): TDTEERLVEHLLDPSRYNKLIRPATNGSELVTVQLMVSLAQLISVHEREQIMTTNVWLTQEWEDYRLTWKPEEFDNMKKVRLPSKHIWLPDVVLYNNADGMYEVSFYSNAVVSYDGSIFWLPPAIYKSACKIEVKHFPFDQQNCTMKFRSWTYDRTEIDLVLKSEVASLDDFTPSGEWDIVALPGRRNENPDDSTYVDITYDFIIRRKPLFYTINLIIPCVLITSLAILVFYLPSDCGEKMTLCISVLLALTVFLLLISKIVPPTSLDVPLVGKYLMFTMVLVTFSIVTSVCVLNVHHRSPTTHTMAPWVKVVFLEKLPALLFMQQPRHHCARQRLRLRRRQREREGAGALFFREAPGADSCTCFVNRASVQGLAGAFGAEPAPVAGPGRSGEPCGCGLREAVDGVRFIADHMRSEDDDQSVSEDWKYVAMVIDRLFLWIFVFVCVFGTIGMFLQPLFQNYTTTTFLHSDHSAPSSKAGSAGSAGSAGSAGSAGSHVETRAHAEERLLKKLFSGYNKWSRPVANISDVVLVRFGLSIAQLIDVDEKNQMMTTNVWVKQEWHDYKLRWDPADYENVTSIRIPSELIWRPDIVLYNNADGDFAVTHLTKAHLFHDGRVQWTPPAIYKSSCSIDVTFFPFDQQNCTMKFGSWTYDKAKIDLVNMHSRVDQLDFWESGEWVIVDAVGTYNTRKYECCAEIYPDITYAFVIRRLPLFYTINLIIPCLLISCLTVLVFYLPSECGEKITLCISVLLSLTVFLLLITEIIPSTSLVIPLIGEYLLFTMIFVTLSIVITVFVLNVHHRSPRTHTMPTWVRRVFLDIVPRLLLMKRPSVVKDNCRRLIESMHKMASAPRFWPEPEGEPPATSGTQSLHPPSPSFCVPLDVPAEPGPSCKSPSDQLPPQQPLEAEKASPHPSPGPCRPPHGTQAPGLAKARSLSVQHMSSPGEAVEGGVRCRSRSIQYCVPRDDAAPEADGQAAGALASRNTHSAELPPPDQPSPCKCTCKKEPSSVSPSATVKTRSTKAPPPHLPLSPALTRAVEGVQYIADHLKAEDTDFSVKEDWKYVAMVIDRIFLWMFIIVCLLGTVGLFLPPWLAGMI
- assayName: Two-electrode voltage clamp of Xenopus oocytes expressing low sensitivity α4β2 nAChR (β2-α4 concatamer plus α4 monomer)
- recordedConditions: LS α4β2; responses relative to ACh maximum
resultType: pEC50
Keep it numeric: pEC50 is minus log10 of the concentration in mol/L.

Qu. Specify reported pEC50 for the compound shown: COC(=O)C1=CCCN(C)C1
Ans. 4.12

---

- experimentalTarget: human α7 nAChR (Homo sapiens, UniProt P36544)
- Sequence (P36544 23-502): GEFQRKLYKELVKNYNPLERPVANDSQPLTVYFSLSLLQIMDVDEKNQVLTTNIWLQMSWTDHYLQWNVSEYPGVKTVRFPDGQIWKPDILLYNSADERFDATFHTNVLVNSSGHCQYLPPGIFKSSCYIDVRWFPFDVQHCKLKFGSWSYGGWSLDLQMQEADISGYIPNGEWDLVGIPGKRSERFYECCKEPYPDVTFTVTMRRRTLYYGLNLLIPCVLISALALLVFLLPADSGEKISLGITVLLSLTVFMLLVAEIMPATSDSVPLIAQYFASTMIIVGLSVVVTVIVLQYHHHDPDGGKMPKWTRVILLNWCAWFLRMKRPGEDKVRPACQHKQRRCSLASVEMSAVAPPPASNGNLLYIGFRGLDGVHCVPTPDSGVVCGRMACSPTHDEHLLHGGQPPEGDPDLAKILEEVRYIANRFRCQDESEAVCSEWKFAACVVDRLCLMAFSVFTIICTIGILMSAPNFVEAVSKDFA
- assayName: Two-electrode voltage clamp of Xenopus oocytes expressing α7 nAChR (co-injected with RIC-3)
- recordedConditions: simple co-application with 60 μM ACh, no PAM; read-out: IC50 for inhibiting 60 μM ACh-evoked responses
resultType: IC50

Qu. Report IC50 on human α7 nAChR (Homo sapiens, UniProt P36544) for this entry: COC(=O)C1=CCCN(C)C1 [arecoline]
Ans. > 1000 µM

---

- experimentalTarget: human α7 nAChR (Homo sapiens)
- Construct: host or cells: Xenopus laevis oocytes injected with cRNA
- assayName: Two-electrode voltage clamp of Xenopus oocytes expressing α7 nAChR (co-injected with RIC-3)
- Format: cell-based
- recordedConditions: co-applied with 30 μM PNU-120596; normalized to 60 μM ACh controls; read-out: EC50, peak currents
resultType: EC50 (µM)
Express your answer in µM, writing the number without its unit.

Qu. // fetch EC50 for COC(=O)C1=CCCN(C)C1 [arecoline] ; system: human α7 nAChR (Homo sapiens)
Ans. 60
